System: 556581-035-R-J1-PDC complex spheroid viability;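 also: spheroids exposed to agents for seven days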
ASSAY EXPLANATION: Anticancer human tumor 556581-035-R-J1-PDC patient-derived ovarian carcinoma cell line growth inhibition
MEASUREMENT PARAMETERS: curve of first compound; second compound 1 µM
QUANTITY KIND: IC50 (nM)
// return numeric value only (unit: nM, not printed)

Reported IC50 (556581-035-R-J1-PDC complex spheroid viability) for entry CC(C)CC(NC(=O)CNC(=O)c1cc(Cl)ccc1Cl)B1OC(=O)CC(CC(=O)O)(C(=O)O)O1 (stereo unspecified) + NC1CC1c1ccc(-c2cccc(O)c2)cc1 is 2.78

Reported IC50 (556581-035-R-J1-PDC complex spheroid viability) for entry CC(C)CC(NC(=O)CNC(=O)c1cc(Cl)ccc1Cl)B1OC(=O)CC(CC(=O)O)(C(=O)O)O1 (stereo unspecified) + NC1CCC(NC2CC2c2ccccc2)CC1 is 4.48

Reported IC50 (556581-035-R-J1-PDC complex spheroid viability) for entry CC1(C)CCC(CN2CCN(c3ccc(C(=O)NS(=O)(=O)c4ccc(NCC5CCOCC5)c([N+](=O)[O-])c4)c(Oc4cnc5[nH]ccc5c4)c3)CC2)=C(c2ccc(Cl)cc2)C1 + NC1CCC(NC2CC2c2ccccc2)CC1 is 4180

Reported IC50 (556581-035-R-J1-PDC complex spheroid viability) for entry NS(=O)(=O)OCC1CC(n2ccc3c(NC4CCc5ccccc54)ncnc32)CC1O (stereo unspecified) + NC1CCC(NC2CC2c2ccccc2)CC1 is 2370
